Every entry's value here was drawn from PubChem BioAssay (NCI).

assay-method-text: NCI Yeast Anticancer Drug Screen. Data for the cln2 rad14 strain (AID 165);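 also: 0% = growth equal to vehicle treated cultures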
condition-parameters: S. cerevisiae cln2 rad14 strain, at 50.0 µM, stronger effect = higher value
About 79,000 compounds went through this panel and 15% of them were active in at least one assay; those are over-represented in the sample as a whole.
For each entry below, report its growth inhibition value.
One number for each entry, in %.

Consider the worked cases shown below.
INSERT INTO assay_data (compound, assay_value) VALUES
  ('O=C(O)C(F)(F)C(F)(F)C(F)(F)C(F)(F)C(=O)O', -28.3),
  ('ClCCc1ccccc1CC1=NCCc2ccccc21', 6.3),
  ('CC(C)Cc1c(N)nc(NCCCC(N)C(=O)O)[nH]c1=O (configuration not stated)', 13.1),
  ('CN(C)CNc1ncnc2onc(-c3ccccc3)c12', 11.6),
  ('Nc1cc(C(F)(F)F)ccc1F', -5.6);

// for each compound in input: emit growth inhibition
1. CCOC(=O)c1ccc(NC(=O)Sc2ccccc2C)cc1
2. Clc1ccccc1C(N1CCCCC1)N1CCCCC1
3. COc1cccc2c1ccc1nonc12
4. CCOC(=O)C(=O)C(Cc1ccccc1)C(=O)OCC (configuration not stated)

result:
1: 7.5; 2: 13.5; 3: -50; 4: -46.5

// for each compound in input: emit growth inhibition
1. CC(=O)c1nc2ccccc2n1CC(=O)c1ccc(Cl)cc1
2. COc1cccc(/C(C#N)=C\O)c1
3. CC(C)C1OC2OCCCC2C(C(C)C)O1 (configuration not stated)
4. COc1ccc2cc1Oc1cc3c(cc1OC)CC[N+](C)(C)C3Cc1ccc(cc1)Oc1c(OC)c(OC)cc3c1C(C2)[N+](C)(C)CC3 (configuration not stated)
5. Cc1cc2c(=O)cc(-c3ccccc3)oc2c(C(N)=O)c1C
6. COc1ccc2ccc3c4c(c(=O)[nH]c3c2n1)CCC4

result:
1. 12.6
2. 3.2
3. -11.9
4. 10.8
5. -2.95
6. 2.55

// for each compound in input: emit growth inhibition
1. CC(=O)Nc1cc2c(s1)CCC1CC(=O)NN=C21 (configuration not stated)
2. CC(=O)C1CCN(Cc2ccccc2)C1 (configuration not stated)
3. C/C(=N\NS(=O)(=O)c1ccccc1)c1ccc(Cl)c(Cl)c1
4. O=C(Nc1ccc2ccccc2c1)c1ccc(Cl)cc1Cl
5. COC(=O)N/N=C(/Cc1occc(=O)c1O)C(=O)Nc1ccc([N+](=O)[O-])cc1[N+](=O)[O-]
6. O=S(=O)(N/C(=C(\NS(=O)(=O)c1ccccc1)c1ccccc1)c1ccccc1)c1ccccc1
7. C=CCNC(=S)Nc1cccc(OC(=O)NC2CCCCC2)c1
8. Cc1nc2ccc(I)cc2c(=O)n1-c1ccc(N=Cc2ccc(N(C)C)cc2)cc1

result:
1. 1.9
2. -1.05
3. 2.25
4. -2.85
5. 3.3
6. 18.3
7. -19.6
8. 4.95
